Overview of recorded GI50 for various molecules
Test system: CCRF-CEM
Assay: NCI tumour cell line growth inhibition, 48 h
The source made the active and inactive calls. Cut-off read from the data, not from the text of the source: active = GI50 up to about 1.1 µM and inactive = higher.

>>> result_value("COc1ccc(OC)c([N+](=O)[O-])c1-c1nc2sccn2c1/C=N/N=C(N)N")
"34.2 µM (inactive)"
>>> result_value("C#C[C@]1(O)CC[C@H]2[C@@H]3CCC4=C/C(=N/CCOC(=O)c5cccc6c(=O)c7ccccc7[nH]c56)CC[C@@H]4[C@H]3CC[C@@]21C")
"35.7 µM (inactive)"
>>> result_value("CC(C)[Si](OC1=CCC[C@H]2NC(=O)[C@@H](Cc3ccc([N+](=O)[O-])cc3)[C@@]12C)(C(C)C)C(C)C")
"2.86 µM (inactive)"
>>> result_value("COc1ccc(-c2c3c(nc4[nH]c(=S)[nH]c(=S)c24)CCCC3)cc1OC")
"28.5 µM (inactive)"
>>> result_value("O=C(Nc1c(Cl)cc([N+](=O)[O-])cc1Cl)/C(=N\\Nc1cccc(Cl)c1)c1c(O)c2ccccc2oc1=O")
"75.2 µM (inactive)"

GI50 reported for this molecule CCOC(=O)C1(C(C)=O)OC(=O)c2cnccc21 (stereo not given) : > 100 µM (inactive)

GI50 reported for this molecule CC(=O)Nc1ccc(S(=O)(=O)Nc2cnc3ccccc3n2)cc1 : > 100 µM (inactive)

GI50 reported for this molecule COc1ccc2c(c1)CC1COc3cc(OC)ccc3C1O2 (stereo not given) : > 100 µM (inactive)

GI50 reported for this molecule O=C1OC(CCCl)(c2ccccc2)CC1CN1CCOCC1 (stereo not given) : 11.4 µM (inactive)

GI50 reported for this molecule C[C@H](N)C(=O)N[C@@H]1[C@H]2C(=C(O)C[C@@H](O)[C@@H]2O)C(=O)O[C@@H]1C : > 53.8 µM (inactive)

---

System: KM12
Experiment: NCI tumour cell line growth inhibition, 48 h
Calls of active or inactive are those of the source. No stated cut-off is given here; in the data, active = GI50 up to about 1.1 µM and inactive = higher.
MEASURE: GI50

Past entries and their recorded results:
>>> result_value("O=C1OS2(OCc3cccc4cccc2c34)c2ccccc21 (stereo not given)")
"> 100 µM (inactive)"
>>> result_value("O=S(=O)(O)c1ccc2c(/N=N\\c3ccc(F)cc3)c(O)c(S(=O)(=O)O)cc2c1")
"> 100 µM (inactive)"
>>> result_value("CC1=NC(=Cc2ccc(O)cc2)C(=O)N1n1c(-c2ccccc2)nc2ccccc2c1=O")
"> 100 µM (inactive)"
>>> result_value("CCOc1ccc(-n2nnc3c(N)nc(N)nc32)cc1")
"> 100 µM (inactive)"
>>> result_value("N#Cc1c(-c2ccco2)cc(-c2ccc(NCc3nc4ccccc4[nH]3)cc2)nc1N")
"18.7 µM (inactive)"

Tested on KM12: O=C(O)c1nn[nH]c1S . Observed GI50: > 100 µM (inactive)

Tested on KM12: [O-][S+]1c2ccccc2N=C(c2cccc3ccccc23)CC1c1cccc2ccccc12 (stereo not given) . Observed GI50: 15.2 µM (inactive)

Tested on KM12: Nc1nc(Cl)c(N)c(NCC2(CO)CC(Cc3ccccc3)C2)n1 (stereo not given) . Observed GI50: 35.7 µM (inactive)

Tested on KM12: CN(C)/N=C(/CC(O)(C(F)(F)F)C(F)(F)F)c1ccc([N+](=O)[O-])cc1 . Observed GI50: > 100 µM (inactive)

Tested on KM12: C1COCCOP2(N3CC3)=NP(N3CC3)(=NP(N3CC3)(N3CC3)=N2)OCCOCCO1 (stereo not given) . Observed GI50: > 100 µM (inactive)

---

Overview of recorded GI50 for various compounds
Tested on: SNB-75
Assay: NCI tumour cell line growth inhibition, 48 h
Calls of active or inactive are those of the source. Rule as the data show it: active = GI50 up to about 1.1 µM and inactive = higher.

Past entries and their recorded results:
>>> result_value("CCCCC1(C(NC(=O)c2ccccc2Cl)c2ccncc2)C(=O)N(c2ccccc2)N(c2ccccc2)C1=O (stereo not drawn)")
"12.4 µM (inactive)"
>>> result_value("CCNCC(O)COc1ccc2c(c1)[n+]([O-])nc(N)[n+]2[O-] (stereo not drawn)")
"29.4 µM (inactive)"

Attention now shifts to the item below.
GI50 reported for this compound CC(=O)/N=C1\NC(=O)/C(=C/c2ccccc2Cl)N1C : > 100 µM (inactive)

---

System: NCI-H522
Assay: NCI tumour cell line growth inhibition, 48 h
The source made the active and inactive calls. Rule as the data show it: active = GI50 up to about 1.1 µM and inactive = higher.
MEASURE: GI50

Past entries and their recorded results:
>>> result_value("C#CCNC(=O)CCC(N)C(=O)O (stereo not given)")
"> 100 µM (inactive)"
>>> result_value("C/C=C/C=C/[C@H]1Cc2cc(O)cc(O)c2O1")
"36.6 µM (inactive)"
>>> result_value("CN(C)c1ccc(/C=C2\\N=C(NN)NC2=O)cc1")
"46.1 µM (inactive)"
>>> result_value("CC(=O)NC(CCC(=O)C=[N+]=[N-])C(=O)O (stereo not given)")
"> 100 µM (inactive)"
>>> result_value("CC1=NC2(CCCCC2)N(Cl)C(=O)C1SC#N (stereo not given)")
"16.7 µM (inactive)"
>>> result_value("OC(C/C(=N\\N=C(/CC(O)(C(F)(F)F)C(F)(F)F)c1ccccc1)c1ccccc1)(C(F)(F)F)C(F)(F)F")
"> 10 µM (inactive)"
>>> result_value("O=C1NC2(CCCC2)/C(=N\\O)C12CCCC2")
"> 100 µM (inactive)"
>>> result_value("O=c1cc2n(c(=O)[nH]1)C1OC(C(O)C1O)[C@H]2CCO (stereo not given in full)")
"> 100 µM (inactive)"
>>> result_value("CC(=O)OC1COC(N2C(=O)C(=O)c3ccccc32)C(OC(C)=O)C1OC(C)=O (stereo not given)")
"> 100 µM (inactive)"
>>> result_value("COC1=C(C)C(=O)C2=C(C1=O)[C@@H]1[C@@H]3Cc4c(OC(=O)CO)c(C)c(OC)c(O)c4[C@H](CNC(=O)C(C)=O)N3[C@@H](C#N)[C@H](C2)N1C")
"< 0.01 µM (active)"

Attention now shifts to the item below.
Tested on NCI-H522: Cc1cc(=O)n2nc(CSc3nnc(Sc4cc(O)ccc4O)s3)sc2n1 . Observed GI50: 20.4 µM (inactive)

---

System: PC-3
Assay: NCI tumour cell line growth inhibition, 48 h
Activity calls are given as the source filed them. No stated cut-off is given here; in the data, active = GI50 up to about 1.1 µM and inactive = higher.
MEASURE: GI50

>>> result_value("CC1(C)OC[C@@H](C[C@H](O)COCc2ccccc2)O1")
"> 100 µM (inactive)"
>>> result_value("COC(=O)C1C(O)C(C)C(O)C(C)C=C(C)C2=C3C(=C(C)C(=O)c4c(O)c(c(C)c(OC(C)=O)c43)NC(=O)C(C)=C/C=C\\C(C)C(O)C(C)C1O)OCO2 (stereo not given)")
"22.8 µM (inactive)"
>>> result_value("O=C(/C=C\\c1ccc(Cl)cc1Cl)c1cccs1")
"16.4 µM (inactive)"
>>> result_value("CC1OC(c2ccc3c(c2O)C(=O)C2=C(C3=O)C3(O)C(=O)CC(C)(O)CC3(O)C=C2)CC(O)C1O (stereo not given)")
"23.3 µM (inactive)"
>>> result_value("C[N+](CCCl)(CCCl)Cc1cccc2cccc([N+](=O)[O-])c12")
"85.3 µM (inactive)"

GI50 reported for this molecule COc1c(-c2cccs2)oc2c(CC(=O)O)cccc2c1=O : > 100 µM (inactive)

GI50 reported for this molecule Oc1[nH]c(Nc2cccc(Br)c2)nc2ncnc1-2 : 98.2 µM (inactive)

GI50 reported for this molecule N#Cc1c(Cl)cc(C#N)n2c1nc1ccccc12 : 18.2 µM (inactive)

GI50 reported for this molecule CC(C)(C)OC(=O)Nc1cc(-c2ccccc2)co1 : 50.1 µM (inactive)

GI50 reported for this molecule Cc1cc(=O)n2nc(CSc3nnc(Sc4cc(O)ccc4O)s3)sc2n1 : > 100 µM (inactive)

---

Test system: SK-MEL-5
Test: NCI tumour cell line growth inhibition, 48 h
The source made the active and inactive calls. Rule as the data show it: active = GI50 up to about 1.1 µM and inactive = higher.
Select the matching outcome among t = active, f = inactive

// below: answered compounds
>>> cat("Cc1ccc(NC(=O)C(=O)C(C#N)c2ccccc2C)cc1C (centres undefined)")
"f"
>>> cat("COc1ccc(CC#C/C=C/C(=O)NCC(C)C)cc1")
"f"

Exercise: What did this assay record as the result for Nc1nc(N)c2ncn(CC3CCC(CO)C3)c2n1 (centres undefined) ?
Key: f

Exercise: What did this assay record as the result for CC(=O)NC(CCC(=O)C=[N+]=[N-])C(=O)O (centres undefined) ?
Key: f

Exercise: What did this assay record as the result for CC1(C)CC2=C(SC3C=CC=CC3N2)C(=O)C1C(=O)C(N)=O (centres undefined) ?
Key: f

Exercise: What did this assay record as the result for COc1cc(NCCC2CCCCN2)c2ncccc2c1 (centres undefined) ?
Key: f

---

Tested on: MDA-N
Assay: NCI tumour cell line growth inhibition, 48 h
Counter-ions that a name gives are not always drawn. The source made the active and inactive calls. Rule as the data show it: active = GI50 up to about 1.1 µM and inactive = higher.
Overview of recorded GI50 for various molecules

Past entries and their recorded results:
>>> result_value("CC(=O)C1=CN=C2C(=O)N(c3ccccc3)N(C)C12C (stereo unspecified)")
"> 100 µM (inactive)"
>>> result_value("O=C(/C=C\\c1ccc(Cl)cc1Cl)c1cccs1")
"16.6 µM (inactive)"

GI50 reported for this molecule COc1ccc(C2=NN(C(=O)c3ccc(Cl)cc3)C(O)(c3cc(F)c(Cl)cc3Cl)C2)cc1 (stereo unspecified) : 22.4 µM (inactive)

GI50 reported for this molecule C=C1CCC(O)C/C1=C/C=C1\CCCC2(C)C1CCC2C(C)CCCC(C)C (stereo unspecified) : 18 µM (inactive)

GI50 reported for this molecule C/C(CC1SCCCS1)=C(/C)CC1SCCCS1 : > 100 µM (inactive)

GI50 reported for this molecule COc1ccc2c(c1)CC1COc3cc(OC)ccc3C1O2 (stereo unspecified) : > 100 µM (inactive)

GI50 reported for this molecule CCOC(=O)C1(C(C)=O)OC(=O)c2cnccc21 (stereo unspecified) : > 100 µM (inactive)

GI50 reported for this molecule NCCS [CYSTEAMINE HYDROCHLORIDE] : > 100 µM (inactive)

GI50 reported for this molecule COC(=O)C1(SC)C2CCC3C2CCC31 (stereo unspecified) : > 100 µM (inactive)

GI50 reported for this molecule Cc1ccc(C(=O)N/N=C(\N=N\c2cccc([N+](=O)[O-])c2)c2ccc(N(C)C)cc2)cc1 : 20.7 µM (inactive)

GI50 reported for this molecule Cc1[nH]c(=O)[nH]c(=S)c1C(=O)NC(C)(CO)CO : > 100 µM (inactive)
